# STUDY_TARGET: AURKA (Aurora A) (Homo sapiens)
# Sequence (O14965 whole entry): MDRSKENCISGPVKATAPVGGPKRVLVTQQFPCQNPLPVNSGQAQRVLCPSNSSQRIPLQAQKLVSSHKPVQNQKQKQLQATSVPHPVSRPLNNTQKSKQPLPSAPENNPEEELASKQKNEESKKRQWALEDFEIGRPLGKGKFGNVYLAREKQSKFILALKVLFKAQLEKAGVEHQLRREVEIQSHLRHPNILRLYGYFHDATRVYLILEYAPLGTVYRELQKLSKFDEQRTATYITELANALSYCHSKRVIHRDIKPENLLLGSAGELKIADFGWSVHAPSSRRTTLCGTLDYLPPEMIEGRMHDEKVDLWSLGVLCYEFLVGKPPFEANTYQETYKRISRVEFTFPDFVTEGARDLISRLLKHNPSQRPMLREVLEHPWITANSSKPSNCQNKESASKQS
# ASSAY_SUMMARY: Z'-LYTE SelectScreen biochemical kinase assay AURKA (Aurora A)
# REPORTED_CONDITIONS: 10 μmolar compound concentration; ATP at Km app; read-out: AURKA (Aurora A) inhibition
Reported inhibition at 10 µM values are given for each entry in this list.

| COMPOUND | inhibition at 10 µM |
| --- | --- |
| CC1(C)NC(=O)c2ccc(Nc3nc4c(-c5cccc(F)c5)cccn4n3)cc21 [Cpd. 302 in WO09155551, reference compound] | > 80% |

Prompt line: Identify the reported inhibition at 10 µM for the following entry. Cc1cc(F)ccc1-c1cccn2nc(Nc3ccc4c(cnn4C)c3)nc12 [Example 9]
Response line: 40 to 80%

Prompt line: Identify the reported inhibition at 10 µM for the following entry. CCn1ncc2c1CC[C@@H](Nc1nc3c(-c4ccc(F)cc4C)cccn3n1)C2 [Example R-42]
Response line: < 40%

Prompt line: Identify the reported inhibition at 10 µM for the following entry. CCn1ncc2c1CC[C@@H](Nc1nc3c(-c4ccc(F)c(Cl)c4)cccn3n1)C2 [Example R-61]
Response line: < 40%

Prompt line: Identify the reported inhibition at 10 µM for the following entry. CCc1nn(C)c2c1CCC(Nc1nc3c(-c4ccc(F)cc4C)cccn3n1)C2 (centres unmarked) [Example 54]
Response line: < 40%

Prompt line: Identify the reported inhibition at 10 µM for the following entry. CCn1ncc2c1CCC(Nc1nc3c(-c4ccc(C)nc4)cccn3n1)C2 (centres unmarked) [Example 67]
Response line: < 40%

Prompt line: Identify the reported inhibition at 10 µM for the following entry. CCn1ncc2c1CCC(Nc1nc3c(-c4cncc(Cl)c4)cccn3n1)C2 (centres unmarked) [Example 73]
Response line: > 80%

Prompt line: Identify the reported inhibition at 10 µM for the following entry. CCCn1ncc2c1CCC(Nc1nc3c(-c4ccc(F)cc4C)cccn3n1)C2 (centres unmarked) [Example 43]
Response line: < 40%
